# targetOfAssay: Cytochrome P450 2C19 (Homo sapiens) (UniProt P33261)
# Sequence (P33261 whole entry, looked up): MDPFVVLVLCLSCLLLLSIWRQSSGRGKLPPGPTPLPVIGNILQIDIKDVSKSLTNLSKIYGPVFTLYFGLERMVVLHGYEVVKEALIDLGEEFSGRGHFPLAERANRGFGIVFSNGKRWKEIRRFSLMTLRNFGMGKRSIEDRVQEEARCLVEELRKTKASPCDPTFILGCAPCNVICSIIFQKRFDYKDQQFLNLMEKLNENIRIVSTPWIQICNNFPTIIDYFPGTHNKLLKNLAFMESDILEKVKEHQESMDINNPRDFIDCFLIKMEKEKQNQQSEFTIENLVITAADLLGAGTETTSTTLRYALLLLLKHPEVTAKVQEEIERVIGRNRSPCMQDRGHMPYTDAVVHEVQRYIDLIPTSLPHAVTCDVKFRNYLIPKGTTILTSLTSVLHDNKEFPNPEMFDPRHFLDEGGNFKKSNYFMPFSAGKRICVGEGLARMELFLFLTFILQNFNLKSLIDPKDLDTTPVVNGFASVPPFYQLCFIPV
# procedureDetails: qHTS Assay for Inhibitors and Substrates of Cytochrome P450 2C19 (AID 899); further: nearly all actives have a fitted effect of over 60% in size
# measurementContext: recombinant CYP2C19, luciferin-H EGE luminescence; series mostly up to 57.1 µM
Inconclusive results are not listed. Active and inactive are the calls of the source. The call rests on the fitted dose curve; in most records, active means well fitted inhibition curve with a large enough effect; inconclusive means small, poorly fitted or top-dose-only effect; inactive means no such curve, though single readings can be large or run the other way.
Possible outcomes: 1 (active), -1 (inactive)

INSERT INTO measurements (moleculesmiles, label) VALUES
  ('Cc1cccc(CNc2ncncc2-c2ccc3c(c2)OCO3)c1', 1),
  ('c1ccc(Nc2cc(-c3ccoc3)ncn2)cc1', 1),
  ('FC(F)(F)c1ccccc1-c1nc(NC2CCNCC2)c2ccccc2n1', -1),
  ('COc1cccc(-c2nccc(NCc3cccc(C)c3)n2)c1', 1),
  ('Cc1noc(C)c1-c1ccc2ncnc(NCc3cccnc3)c2c1', 1),
  ('CN(C)c1ccc(-c2cc(-n3ccnc3)ncn2)cc1', 1),
  ('Cc1ccccc1-c1cncnc1N(C)Cc1ccco1', 1),
  ('COc1ccccc1-c1cncnc1Nc1ccc(F)cc1', 1),
  ('COCC(=O)N1CCC[C@@]2(CCN(C(=O)Nc3cccc(C#N)c3)C2)C1', -1),
  ('Cn1cccc1C(=O)N1CCC2(CCCN(c3ccccc3)C2)CC1', 1),
  ('Cc1noc(C)c1-c1nccc(-n2ccnc2)n1', 1),
  ('COc1ccccc1CNc1ccnc(-c2ccc3c(c2)OCO3)n1', 1),
  ('COc1cccc(-c2ccc3ncnc(N(C)Cc4ccco4)c3c2)c1', 1),
  ('COc1ccc(CNc2ncnc3ccc(-c4cccc(NS(C)(=O)=O)c4)cc23)c(OC)c1', 1),
  ('COc1ccccc1-c1cc(NCc2ccccc2)ncn1', 1),
  ('CS(=O)(=O)Nc1cccc(-c2ccc3ncnc(NC4CC4)c3c2)c1', -1),
  ('Cn1cc(-c2nc3cnc(N4CCOCC4)nc3n(C3CC3)c2=O)c2ccccc21', -1),
  ('CCNc1ncc2nc(C)c(=O)n(-c3ccc(OC)cc3)c2n1', -1),
  ('Cc1ccccc1-c1nccc(NCc2cccs2)n1', 1),
  ('COc1ccccc1-c1cncnc1NCCc1cnc[nH]1', 1),
  ('Cc1cccc(CNc2ncncc2-c2cccc(C#N)c2)c1', 1),
  ('COCC(=O)N1CCC2(CCCN(C(=O)Nc3ccc(OC)cc3)C2)CC1', -1),
  ('O=c1c(CCc2ccccc2)nc2cncnc2n1Cc1ccc(F)cc1', 1),
  ('CCCC(=O)NCCc1c2n(c3ccc(OC)cc13)Cc1ccccc1-2', 1);

====

# targetOfAssay: Cytochrome P450 2D6 (Homo sapiens) (UniProt P10635)
# Sequence (P10635 whole entry, looked up): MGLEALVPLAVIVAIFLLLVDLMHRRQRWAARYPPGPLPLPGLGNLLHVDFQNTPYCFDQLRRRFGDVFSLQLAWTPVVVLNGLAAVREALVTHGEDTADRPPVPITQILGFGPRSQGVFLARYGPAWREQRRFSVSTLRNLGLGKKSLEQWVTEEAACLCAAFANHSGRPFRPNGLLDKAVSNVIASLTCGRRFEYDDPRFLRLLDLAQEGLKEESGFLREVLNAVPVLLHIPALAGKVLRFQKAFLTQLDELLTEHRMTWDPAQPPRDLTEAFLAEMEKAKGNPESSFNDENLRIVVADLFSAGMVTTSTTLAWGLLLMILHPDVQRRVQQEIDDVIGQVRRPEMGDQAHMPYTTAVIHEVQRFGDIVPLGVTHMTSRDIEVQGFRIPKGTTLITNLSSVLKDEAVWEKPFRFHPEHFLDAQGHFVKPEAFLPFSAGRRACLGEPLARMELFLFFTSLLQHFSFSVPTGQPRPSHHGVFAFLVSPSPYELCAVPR
# procedureDetails: qHTS Assay for Inhibitors and Substrates of Cytochrome P450 2D6 (AID 891); further: nearly all actives have a fitted effect of over 60% in size
# measurementContext: recombinant CYP2D6, luciferin-ME EGE luminescence; series mostly up to 57.1 µM
# Protocol: NIH Molecular Libraries Screening Centers Network [MLSCN] NIH Chemical Genomics Center [NCGC] The P450 gene superfamily is involved in the metabolism and clearance of xenobiotics. […] The luciferin is then measured by luminescence after the addition of a luciferase detection reagent. […] Inhibitors and some substrates limit the production of luciferin, and decrease measured luminescence. […]
Inconclusive results are not listed. Activity calls are given as the source filed them. The call rests on the fitted dose curve; in most records, active means well fitted inhibition curve with a large enough effect; inconclusive means small, poorly fitted or top-dose-only effect; inactive means no such curve, though single readings can be large or run the other way.
Outcomes: yes (1) (active), no (0) (inactive)

INSERT INTO results (moleculesmiles, label) VALUES
  ('COCC(=O)N1CCC[C@@]2(CCN(C(=O)Nc3cccc(C#N)c3)C2)C1', 'no (0)'),
  ('CC(C)CN1CC[C@@]2(CCCN(S(=O)(=O)c3ccccc3)C2)C1', 'yes (1)'),
  ('COc1ccccc1CN1CC2(CCN(S(C)(=O)=O)CC2)C1', 'no (0)'),
  ('Cc1cccc(CNc2ncnc3ccc(-c4ccc5c(c4)OCO5)cc23)c1', 'yes (1)'),
  ('CN1CCN(c2ncncc2-c2ccc(C(=O)N(C)C)cc2)CC1', 'yes (1)'),
  ('CCNc1ncc2nc(-c3cc(F)cc(F)c3)c(=O)n(C[C@H]3CCCO3)c2n1', 'yes (1)'),
  ('COc1cccc(-c2nccc(-n3ccnc3)n2)c1', 'yes (1)'),
  ('c1ccc2c(N3CCNCC3)nc(-c3ccc4c(c3)OCO4)nc2c1', 'yes (1)'),
  ('O=C(c1csnn1)N1CCC[C@@]2(CCN(Cc3nccs3)C2)C1', 'yes (1)'),
  ('CN(C)C(=O)c1ccc(-c2cncnc2N2CCNCC2)cc1', 'yes (1)'),
  ('COCC(=O)N1CCC[C@@]2(CCN(Cc3ccccc3OC)C2)C1', 'yes (1)');

All figures here come from PubChem BioAssay (NCATS).
